- testedOn: recombinant human BTK protein (Homo sapiens)
- Sequence (Q06187 whole entry): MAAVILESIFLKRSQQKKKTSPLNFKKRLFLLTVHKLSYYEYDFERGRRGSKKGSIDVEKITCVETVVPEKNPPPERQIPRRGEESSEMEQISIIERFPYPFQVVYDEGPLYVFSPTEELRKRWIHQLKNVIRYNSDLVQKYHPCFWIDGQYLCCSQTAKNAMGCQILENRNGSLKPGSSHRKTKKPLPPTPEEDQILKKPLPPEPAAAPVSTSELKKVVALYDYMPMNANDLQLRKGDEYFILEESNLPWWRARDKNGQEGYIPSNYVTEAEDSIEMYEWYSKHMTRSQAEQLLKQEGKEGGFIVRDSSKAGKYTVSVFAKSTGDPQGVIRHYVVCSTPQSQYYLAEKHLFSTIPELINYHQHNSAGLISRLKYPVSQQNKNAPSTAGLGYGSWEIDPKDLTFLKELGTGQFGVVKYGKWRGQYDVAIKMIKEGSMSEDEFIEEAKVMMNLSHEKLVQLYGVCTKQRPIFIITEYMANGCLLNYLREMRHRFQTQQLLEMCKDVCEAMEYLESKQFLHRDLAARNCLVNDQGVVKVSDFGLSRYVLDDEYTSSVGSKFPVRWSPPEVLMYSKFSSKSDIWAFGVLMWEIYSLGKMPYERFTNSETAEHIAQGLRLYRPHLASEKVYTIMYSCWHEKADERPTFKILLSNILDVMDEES
- protocolDetails: Measurement of BTK inhibitory activity (in vitro)
- experimentalConditions: ATP 45 μM, 40 minutes at 25° C.
- Description: Regarding the setting of the conditions for a method for measuring the inhibitory activity of a compound against BTK kinase activity in vitro, it is described in the consumable reagent supplies price list for LabChip (registered trademark) series of PerkinElmer, Inc. that FL-PEPTIDE 2 corresponds to a substrate peptide for the measurement of BTK kinase activity. Therefore, FL-PEPTIDE 2 was used as a substrate. […]
measuredQuantity: IC50 (nM)

{"smilesRepresentation": "C=CC(=O)N1CC[C@@H](n2nc(C(=O)Nc3nc4cc(OC)ccc4o3)c3c(N)ncnc32)C1", "testedOn": "recombinant human BTK protein (Homo sapiens)", "reportedResult": 0.888}

[I] CN(C)C/C=C/C(=O)N1CCC[C@@H](n2nc(C(=O)Nc3nc4cc(-c5cccs5)ccc4o3)c3c(N)ncnc32)C1
[II] CN(C)C/C=C/C(=O)N1CC(n2cc(C(=O)Nc3nc4cc(Cl)ccc4o3)c3c(N)ncnc32)C1
[III] C=CC(=O)N1CC[C@@H](n2nc(C(=O)Nc3nc4ccccc4o3)c3c(N)ncnc32)C1
Request: I would appreciate it if you could sort these 3 compounds by IC50, starting from the smallest number. # the answer lists labels in the order requested
Response: I, III, II
(I: 0.777 nM, III: 1.43 nM, II: 7.34 nM)
